biological target: HCV genotype 1b (BK) NS3 modified with a R155K mutation (Hepatitis C virus genotype 1b, UniProt P26663, R1181K); construct: HCV genotype 1b (BK) NS3 modified with a R155K mutation; test: HCV NS3 protease time-resolved fluorescence (TRF) assay, NS3 protease 1b R155K Ki activity; details: HCV genotype 1b (BK) NS3 with R155K mutation; TRF peptide substrate 100 nM; Ki derived from IC50
pKi: −log10 of the molar value.
readout.kind: pKi

Please give the measured pKi for this compound: C=C[C@@H]1C[C@]1(NC(=O)[C@@H]1C[C@@H]2CN1C(=O)[C@H](C1CCCC1)NC(=O)O[C@@H]1CCC[C@H]1CC/C=C/Cn1c(nc3cc(OC)ccc3c1=O)O2)C(=O)NS(=O)(=O)C1CC1
> 10.00

Here is the next compound: C=C[C@@H]1C[C@]1(NC(=O)[C@@H]1C[C@@H]2CN1C(=O)[C@H](C1CCCCC1)NC(=O)O[C@@H]1CCC[C@H]1CCCCCn1c(cc3cc(Cl)ccc3c1=O)O2)C(=O)NS(=O)(=O)C1CC1
> 10.00

Here is the next compound: C=C[C@@H]1C[C@]1(NC(=O)[C@@H]1C[C@@H]2CN1C(=O)[C@H](C1CCCC1)NC(=O)O[C@@H]1CCC[C@H]1CCCCCn1c(nc3cc(C)ccc3c1=O)O2)C(=O)NS(=O)(=O)C1CC1
> 10.00

Here is the next compound: C=C[C@@H]1C[C@]1(NC(=O)[C@@H]1C[C@@H]2CN1C(=O)[C@H](C1CCCC1)NC(=O)O[C@@H]1CCC[C@H]1C/C=C/CCn1c(cc3ccc(F)cc3c1=O)O2)C(=O)NS(=O)(=O)C1CC1
9.30 to 10.00

Here is the next compound: C=C[C@@H]1C[C@]1(NC(=O)[C@@H]1C[C@@H]2CN1C(=O)[C@H](C1CCCC1)NC(=O)O[C@@H]1CCC[C@H]1CCCCCn1c(nc3cc(Cl)ccc3c1=O)O2)C(=O)NS(=O)(=O)C1(C)CC1
> 10.00

Here is the next compound: C=C[C@@H]1C[C@]1(NC(=O)[C@@H]1C[C@@H]2CN1C(=O)[C@H](C1CCCC1)NC(=O)O[C@@H]1CCC[C@H]1CC/C=C/Cn1c(nc3cccc(OC)c3c1=O)O2)C(=O)NS(=O)(=O)C1CC1
> 10.00

Here is the next compound: C=C[C@@H]1C[C@]1(NC(=O)[C@@H]1C[C@@H]2CN1C(=O)[C@H](C1CCCC1)NC(=O)O[C@@H]1CCC[C@H]1CC/C=C/Cn1c(nc3cc(C(F)(F)F)ccc3c1=O)O2)C(=O)NS(=O)(=O)C1CC1
> 10.00

Here is the next compound: C=C[C@@H]1C[C@]1(NC(=O)[C@@H]1C[C@@H]2CN1C(=O)[C@H](C1CCCC1)NC(=O)O[C@@H]1CCC[C@H]1CCCCCn1c(nc3c(OC)cccc3c1=O)O2)C(=O)NS(=O)(=O)C1CC1
> 10.00

Here is the next compound: CC[C@@H]1C[C@]1(NC(=O)[C@@H]1C[C@@H]2CN1C(=O)[C@H](C1CCCC1)NC(=O)O[C@@H]1CCC[C@H]1CCCCCn1c(cc3cc(OC)ccc3c1=O)O2)C(=O)NS(=O)(=O)C1CC1
9.30 to 10.00
